Documented IC50 across a set of molecules
Molecular target: human calcium receptor (Homo sapiens, UniProt P41180)
Experiment: Evaluation of antagonistic action on calcium receptor using reporter gene (luciferase)
Settings: transformed rat adrenal derived cells, 5 mM calcium chloride, culture 4 hrs, luciferase activity; read-out: Reporter gene assay (IC50, concentration showing 50% inhibitory rate)

Recorded IC50, per entry:
- CC(OC[C@H](O)CNC(C)(C)Cc1ccc2ccccc2c1)c1ccccc1OCc1cccc(C(=O)O)c1 (some centres unmarked) [Example 2-21]: 17 nM
- Cc1ccc(CC(C)(C)NC[C@@H](O)CO[C@H](C)c2ccccc2Oc2ccc(C(=O)O)c([N+](=O)[O-])c2)cc1F [Example 2-29]: 11 nM
- Cc1cc(-c2ccccc2[C@H](OC[C@H](O)CNC(C)(C)Cc2ccc3ccccc3c2)C2CC2)ccc1C(=O)O [Example 1-11]: 18 nM
- C[C@@H](OC[C@H](O)CNC(C)(C)Cc1ccc2ccccc2c1)c1ccccc1-c1ccc(C(=O)O)c(O)c1 [Example 1-49]: 2 nM

For the next question, use this molecule.
Record lookup: for human calcium receptor (Homo sapiens, UniProt P41180), what IC50 belongs to CC(C)Cc1cc(-c2ccccc2[C@@H](C)OC[C@H](O)CNC(C)(C)Cc2ccc3ccccc3c2)ccc1C(=O)O [Example 1-45] ? 2 nM

* * *

Target: human calcium receptor (Homo sapiens)
Experiment: Evaluation of antagonistic action on calcium receptor using reporter gene (luciferase)
Conditions: transformed rat adrenal derived cells, 5 mM calcium chloride, culture 4 hrs, luciferase activity; read-out: Reporter gene assay (IC50, concentration showing 50% inhibitory rate)
Entries and their IC50 values follow.
// note: answer is a bare numeric in µM

Worked examples, 4 compounds total:
- Cc1ccc(CC(C)(C)NC[C@@H](O)CO[C@H](C)c2ccccc2-c2cc(C)c(C(=O)O)c(C)c2)cc1F: 0.016
- Cc1cc(C(=O)O)ccc1Oc1ccccc1C(C)OC[C@H](O)CNC(C)(C)Cc1ccc(Cl)c(F)c1 (some centres unmarked): 0.013
- CC(OC[C@H](O)CNC(C)(C)Cc1ccc2ccccc2c1)c1ccccc1Oc1ccc(C(=O)O)cc1 (some centres unmarked): 0.01
- C[C@@H](OC[C@H](O)CNC(C)(C)Cc1ccc2ccccc2c1)c1ccccc1OCc1ccc(C(=O)O)cc1: 0.017

Record lookup: for human calcium receptor (Homo sapiens), what IC50 belongs to C[C@@H](OC[C@H](O)CNC(C)(C)Cc1ccc(Cl)c(F)c1)c1ccccc1-c1ccc(C(=O)O)c(C(C)(C)C)c1 ? 0.017

* * *

Biological target: human calcium receptor (Homo sapiens, UniProt P41180)
Sequence (P41180 20-1078): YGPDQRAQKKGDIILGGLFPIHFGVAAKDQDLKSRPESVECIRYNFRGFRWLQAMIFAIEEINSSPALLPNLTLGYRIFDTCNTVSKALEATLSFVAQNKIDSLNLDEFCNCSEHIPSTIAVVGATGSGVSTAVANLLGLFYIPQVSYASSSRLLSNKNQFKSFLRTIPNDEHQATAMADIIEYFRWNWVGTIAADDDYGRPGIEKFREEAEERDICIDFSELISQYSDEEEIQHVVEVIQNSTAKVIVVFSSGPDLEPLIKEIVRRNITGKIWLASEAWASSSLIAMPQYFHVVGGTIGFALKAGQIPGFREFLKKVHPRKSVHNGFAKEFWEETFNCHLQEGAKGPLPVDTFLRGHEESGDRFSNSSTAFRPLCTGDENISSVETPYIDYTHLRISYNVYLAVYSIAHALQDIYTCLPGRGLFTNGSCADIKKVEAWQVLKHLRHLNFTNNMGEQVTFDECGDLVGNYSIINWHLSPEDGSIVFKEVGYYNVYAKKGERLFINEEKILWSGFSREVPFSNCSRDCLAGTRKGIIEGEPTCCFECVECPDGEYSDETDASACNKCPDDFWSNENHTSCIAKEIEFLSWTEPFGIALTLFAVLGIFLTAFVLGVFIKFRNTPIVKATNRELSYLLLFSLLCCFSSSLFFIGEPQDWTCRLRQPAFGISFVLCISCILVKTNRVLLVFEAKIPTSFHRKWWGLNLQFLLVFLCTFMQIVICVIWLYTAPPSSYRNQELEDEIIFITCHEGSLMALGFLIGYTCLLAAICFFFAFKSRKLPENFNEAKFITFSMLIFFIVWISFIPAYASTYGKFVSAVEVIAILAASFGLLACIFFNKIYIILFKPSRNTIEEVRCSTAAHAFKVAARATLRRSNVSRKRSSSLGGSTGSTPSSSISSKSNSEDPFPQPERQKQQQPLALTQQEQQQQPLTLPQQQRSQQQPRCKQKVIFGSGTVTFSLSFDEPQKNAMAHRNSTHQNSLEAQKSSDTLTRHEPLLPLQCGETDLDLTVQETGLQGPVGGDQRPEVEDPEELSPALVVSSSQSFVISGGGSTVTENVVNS
Test: Evaluation of antagonistic action on calcium receptor using reporter gene (luciferase)
Conditions: transformed rat adrenal derived cells, 5 mM calcium chloride, culture 4 hrs, luciferase activity; read-out: Reporter gene assay (IC50, concentration showing 50% inhibitory rate)
# maps each entry to its pIC50
Scale explanation: pIC50 corresponds to minus log10 of a concentration expressed in moles per litre.

Some molecules with known pIC50 results, for comparison:
• CC(OC[C@H](O)CNC(C)(C)Cc1ccc2ccccc2c1)c1ccccc1OCc1ccccc1C(=O)O (stereo partly drawn) [2-20′] = 7.68
• Cc1cc(-c2ccccc2[C@@H](C)OC[C@H](O)CNC(C)(C)Cc2ccc(Cl)c(F)c2)ccc1C(=O)O [Example 1-2] = 7.89

Pending molecule:
Request the reported pIC50 associated with Cc1cc(F)c(CC(C)(C)NC[C@@H](O)CO[C@H](C)c2ccccc2-c2ccc(C(=O)O)c(C)c2)cc1Cl [Example 1-90] 6.57

* * *

Target: human calcium receptor (Homo sapiens, UniProt P41180)
Construct: expressed in transfected cells; host or cells: cell strain derived from rat adrenal, co-transformed with luciferase cDNA
Sequence (P41180 20-1078): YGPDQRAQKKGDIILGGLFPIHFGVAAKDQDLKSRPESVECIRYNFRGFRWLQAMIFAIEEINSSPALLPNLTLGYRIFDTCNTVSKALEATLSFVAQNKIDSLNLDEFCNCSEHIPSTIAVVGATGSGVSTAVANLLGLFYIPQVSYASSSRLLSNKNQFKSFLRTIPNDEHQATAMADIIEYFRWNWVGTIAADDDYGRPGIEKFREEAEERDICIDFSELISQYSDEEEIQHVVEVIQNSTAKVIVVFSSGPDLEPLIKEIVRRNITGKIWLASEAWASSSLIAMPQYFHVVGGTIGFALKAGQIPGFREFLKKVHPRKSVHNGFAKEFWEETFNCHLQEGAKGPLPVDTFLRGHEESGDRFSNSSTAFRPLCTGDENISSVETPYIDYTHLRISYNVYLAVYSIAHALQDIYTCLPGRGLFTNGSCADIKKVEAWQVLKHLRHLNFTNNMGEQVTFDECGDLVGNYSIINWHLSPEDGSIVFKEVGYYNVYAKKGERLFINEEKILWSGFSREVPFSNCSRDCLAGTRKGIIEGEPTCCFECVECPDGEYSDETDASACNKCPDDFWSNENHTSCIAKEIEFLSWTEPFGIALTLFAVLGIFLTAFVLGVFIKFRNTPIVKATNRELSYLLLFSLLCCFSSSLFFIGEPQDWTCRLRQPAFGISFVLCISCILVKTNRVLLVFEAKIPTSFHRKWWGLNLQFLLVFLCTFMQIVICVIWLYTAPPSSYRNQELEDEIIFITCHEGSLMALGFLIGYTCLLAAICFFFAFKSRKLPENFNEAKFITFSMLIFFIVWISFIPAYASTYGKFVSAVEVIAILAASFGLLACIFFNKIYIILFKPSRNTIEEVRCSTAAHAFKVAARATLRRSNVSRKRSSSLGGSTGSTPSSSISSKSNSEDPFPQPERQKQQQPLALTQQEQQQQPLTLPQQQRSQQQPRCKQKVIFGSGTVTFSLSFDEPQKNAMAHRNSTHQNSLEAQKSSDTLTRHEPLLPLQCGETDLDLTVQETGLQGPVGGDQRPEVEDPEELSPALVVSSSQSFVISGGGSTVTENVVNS
Assay: Evaluation of antagonistic action on calcium receptor using reporter gene (luciferase)
Type: cell-based
Conditions: transformed rat adrenal derived cells, 5 mM calcium chloride, culture 4 hrs, luciferase activity; read-out: Reporter gene assay (IC50, concentration showing 50% inhibitory rate)
Catalogue of pIC50 readings, one per entry.
Please keep in mind that pIC50 is minus log10 of the molar concentration; only the number is needed.

Check out these entries, answers already filled in.
* Cc1cc(-c2ccccc2[C@@H](C)OC[C@H](O)CNC(C)(C)Cc2cc(Cl)cc(Cl)c2)ccc1C(=O)O | 7.85
* Cc1ccc(CC(C)(C)NC[C@@H](O)CO[C@H](C)c2ccccc2-c2ccc(C(=O)O)c(C)c2)cc1C | 7.89
* C[C@@H](OC[C@H](O)CNC(C)(C)Cc1ccc2ccccc2c1)c1ccccc1-c1ccc(CO)c(C(=O)O)c1 | 8.05
* Cc1cc(-c2ccccc2[C@@H](C)OC[C@H](O)CNC(C)(C)Cc2ccc3ccccc3c2)ccc1C(=O)O [Example 1-55] | 8.00
* Cc1cc(CC(C)(C)NC[C@@H](O)CO[C@H](C)c2ccccc2-c2ccc(C(=O)O)c(C)c2)ccc1Cl | 7.85

Suppose we examine the molecule Cc1ccc(CC(C)(C)NC[C@@H](O)CO[C@H](C)c2ccccc2-c2ccc(C(=O)O)c(N3CCOCC3)c2)cc1F ; what pIC50 value has been reported? 7.85

Try this molecule next: Cc1ccc(CC(C)(C)NC[C@@H](O)CO[C@H](C)c2ccccc2-c2ccc(C(=O)O)c(C)c2)cc1Cl 8.00

Next record, please: Cc1cc(C(=O)O)cc(C)c1-c1ccccc1[C@@H](C)OC[C@H](O)CNC(C)(C)Cc1ccc2ccccc2c1 7.92

// query: CC(C)(Cc1ccc2ccccc2c1)NC[C@@H](O)COC(c1ccccc1-c1ccc(C(=O)O)c(F)c1)C1CC1 (stereo partly drawn) 7.77
